System: KM-20L2
Experiment notes: NCI tumour cell line growth inhibition, 48 h
Active and inactive are the calls of the source. Cut-off read from the data, not from the text of the source: active = GI50 up to about 1.1 µM and inactive = higher.
Listed below: GI50 values for each entry.

Example results:
Compound	Tgt	Observable	Obs value
Cc1nn(C)c(=O)c2nn(-c3ccccc3)c(C)c12	KM-20L2	GI50	> 100 µM (inactive)
O=c1oc2ccccc2n1P(=O)(Oc1ccc(Cl)cc1)n1c(=O)oc2ccccc21	KM-20L2	GI50	> 100 µM (inactive)
CCCCN/C(=N/C#N)NCc1ccccc1	KM-20L2	GI50	> 100 µM (inactive)
CCOC(=O)CCc1c(C)c2c(O)cc(O)cc2oc1=O	KM-20L2	GI50	> 100 µM (inactive)

What does the record list as GI50 for Nc1c(S(=O)(=O)O)cc(S(=O)(=O)O)c2ccc(/N=N/c3ccc(/C=C/c4ccc(/N=N/c5ccc6c(S(=O)(=O)O)cc(S(=O)(=O)O)c(N)c6c5O)cc4S(=O)(=O)O)c(S(=O)(=O)O)c3)c(O)c12 ?
79.4 µM (inactive)
